Documented shrunken log2 fold change across a set of sequences
# Tested on: Escherichia coli TOP10;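 note: peptides expressed intracellularly from a pBAD plasmid library in pooled LB shake-flask culture, induced with 0.3% L-arabinose, DNA abundance read by NGS, three biological replicates, DESeq2 with apeglm shrinkage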
# ASSAY_NOTES: shrunken log2 fold change of peptide-encoding DNA abundance (4.5 h post-induction vs induction); higher = less antimicrobial activity (less host growth inhibition)
# TEST_CONTEXT: time post-induction: 4.5 h; library: site-saturation at positions 5, 18, 19, 20

# SEQUENCE_CHAIN, TARGET, shrunken log2 fold change
data = [
    ("RRIRLRPPRLPRPRPRPSNPPRP", "Escherichia coli TOP10", -0.86),
    ("RRIRYRPPRLPRPRPRPYFAPRP", "Escherichia coli TOP10", -0.796),
    ("RRIRGRPPRLPRPRPRPGEAPRP", "Escherichia coli TOP10", 1.48),
    ("RRIRWRPPRLPRPRPRPNVWPRP", "Escherichia coli TOP10", -0.308),
    ("RRIRWRPPRLPRPRPRPHRMPRP", "Escherichia coli TOP10", -0.203),
]
